testDescription: in vitro
appliedConditions: human, hela cells, % viability
Record form. Attribute: viability at 28.5 h, 10 µM. Fill in for each entry.
Give the number; % is assumed, so skip it.

Return reported viability at 28.5 h, 10 µM; argument: `O=C1c2ccc(S(=O)(=O)c3ccc4c(c3)C(=O)N(CCO)C4=O)cc2C(=O)N1CCO`
112

Return reported viability at 28.5 h, 10 µM; argument: `CCN(Cc1ccccc1)C(=O)Nc1ccccc1`
94.9

Return reported viability at 28.5 h, 10 µM; argument: `Cc1ccc(Cl)cc1C(=O)N[C@H]1C[C@@H](c2nnc(CO)n2C2CC2)C1`
92.8

Return reported viability at 28.5 h, 10 µM; argument: `CCn1c(=O)n(CC(=O)NCc2ccccc2)c2cccnc21`
101

Return reported viability at 28.5 h, 10 µM; argument: Cc1nc(C)c(-c2csc(Nc3ncccn3)n2)s1 [CBK263297B]
87.4
